- Protocol Summary: Urinary recovery of thienamycin class compound in the mouse
- Type: in vivo
- Recorded Conditions: urine, po, 10 mg/kg, Total, compound alone, 10 mg/kg oral
Property Name: dose excreted (%)
Numbers only, in %.

Input line: Given the entry CCSC1=C(C(=O)O)N2C(=O)[C@H]([C@@H](C)O)[C@H]2S1 (relative stereo) [Thienamycin Class Compound] , report its measured dose excreted.
Output line: 2.4

----------
- Target Entity: renal dipeptidase (E.C.3.4.13.11) (Sus scrofa)
- Construct: solubilized preparation of dipeptidase isolated from hog kidneys; from tissue; host or cells: hog kidney
- Sequence (P22412 17-409): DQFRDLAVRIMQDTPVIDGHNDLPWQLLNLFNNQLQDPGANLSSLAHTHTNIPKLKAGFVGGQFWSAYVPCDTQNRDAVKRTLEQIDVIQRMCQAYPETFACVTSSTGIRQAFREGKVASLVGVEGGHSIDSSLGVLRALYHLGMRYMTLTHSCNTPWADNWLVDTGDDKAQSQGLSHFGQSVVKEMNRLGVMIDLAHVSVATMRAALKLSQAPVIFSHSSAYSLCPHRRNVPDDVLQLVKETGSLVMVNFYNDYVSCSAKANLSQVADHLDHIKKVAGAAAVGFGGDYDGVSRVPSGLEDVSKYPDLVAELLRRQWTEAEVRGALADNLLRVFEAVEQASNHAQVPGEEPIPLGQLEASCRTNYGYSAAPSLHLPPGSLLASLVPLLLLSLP
- Protocol Summary: Inhibition of glycyldehydrophenylalanine (GDP) hydrolysis by renal dipeptidase in vitro
- Assay type: biochemical, pig (hog)
- Recorded Conditions: Example 18B, unit inferred; read-out: Ki
Property Name: Ki
Note: state the figure and append the unit.

Input line: API: value(readout= Ki, system= renal dipeptidase (E.C.3.4.13.11) (Sus scrofa), query= CC(NCCCCC/C=C(\NC(=O)C1CC1(C)C)C(=O)O)P(=O)(O)O (stereo not shown) [Example 18B] )
Output line: 160 nM
